Entry source: patent US20050014942A1

# Procedure Text: Measurement of concentration of compound in rat plasma
# Format: in vivo
# Condition Context: oral 10 mg/kg, after 0.25 hours
Structures can show the parent of a compound that is named as a salt.

Compound	concentration at 0.25 h
Cc1ccc2c(c1)c(C(=O)N1CCN(c3ccc(-c4nnn(C)n4)cn3)CC1)c(-c1ccccc1)n2C [Example 26]	230 to 800 ng/mL
Cn1c(-c2ccccc2)c(/C=C/C(=O)N2CCc3ccccc3C2)c2cccnc21 [Example 104, hydrochloride]	14 to 19 ng/mL
CC(=O)Nc1cnc(N2CCN(C(=O)c3c(-c4ccccc4)n(C)c4ccc(C)cc34)CC2)cn1 [Example 121]	3900 to 5800 ng/mL
Cc1ccc2c(c1)c(C(=O)N1CCN(c3ccc(C(=O)NCCO)cn3)CC1)c(-c1ccccc1)n2C [Example 1]	2300 to 29000 ng/mL
Cc1ccc2c(c1)c(C(=O)N1CCN(c3ccccn3)CC1)c(-c1ccccc1)n2C [Compound A, hydrochloride, reference compound]	0 to 69 ng/mL
Cc1ncsc1CCNC(=O)c1cnc(N2CCN(C(=O)c3c(-c4ccccc4)n(C)c4ncccc34)CC2)cn1 [Example 27, dihydrochloride]	2400 to 4100 ng/mL
